Field: pIC50. Provide a value for each of the molecules that follow.
system: MCF-7 transient transfectants; test: Chemosensitivity of transient transfectants (cell counting); type: cell-based; settings: Homo sapiens, MCF7, 72 h, transient transfectant MCF-7/pNCN3, 3-days incubation; read-out: IC50 of chemical agent
For clarity, pIC50 is expressed as the negative log10 of concentration in mol/L.

pIC50 on MCF-7 transient transfectants for `COc1cccc2c1C(=O)c1c(O)c3c(c(O)c1C2=O)C[C@@](O)(C(=O)CO)C[C@@H]3O[C@H]1C[C@H](N)[C@H](O)[C@H](C)O1` is 6.49

pIC50 on MCF-7 transient transfectants for `CC(=O)O[C@H]1C(=O)[C@@]2(C)[C@H]([C@H](OC(=O)c3ccccc3)[C@]3(O)C[C@H](OC(=O)[C@H](O)[C@@H](NC(=O)c4ccccc4)c4ccccc4)C(C)=C1C3(C)C)[C@]1(OC(C)=O)CO[C@@H]1C[C@@H]2O` is 7.36

---

tested on: MCF-7 transient transfectants; test: Chemosensitivity of transient transfectants (cell counting); assay type: cell-based; conditions: Homo sapiens, MCF7, 72 h, transient transfectant MCF-7/pCIneo (control plasmid), 3-days incubation; read-out: IC50 of chemical agent
endpoint_name: IC50 (µM)
Only the number, expressed in µM, is required.

Lab book: IC50 of `COc1cccc2c1C(=O)c1c(O)c3c(c(O)c1C2=O)C[C@@](O)(C(=O)CO)C[C@@H]3O[C@H]1C[C@H](N)[C@H](O)[C@H](C)O1` noted as 2.13

---

system: DU145 transient transfectants; test: Chemosensitivity of transient transfectants (cell counting); type: cell-based, human; settings: Homo sapiens, DU-145, 72 h, transient transfectant DU145/pNCN3, 3-days incubation; read-out: IC50 of chemical agent
Field: IC50. Provide a value for each of the compounds that follow.
Only the number, expressed in nM, is required.

IC50 on DU145 transient transfectants for COc1cc([C@@H]2c3cc4c(cc3[C@@H](O[C@@H]3O[C@@H]5CO[C@@H](C)O[C@H]5[C@H](O)[C@H]3O)[C@H]3COC(=O)[C@H]23)OCO4)cc(OC)c1O [Etoposide, etoposide] is 710

IC50 on DU145 transient transfectants for `COc1cccc2c1C(=O)c1c(O)c3c(c(O)c1C2=O)C[C@@](O)(C(=O)CO)C[C@@H]3O[C@H]1C[C@H](N)[C@H](O)[C@H](C)O1` is 60
